Biological target: rat liver HMG-CoA reductase (Rattus norvegicus)
Sequence (P51639 1-887): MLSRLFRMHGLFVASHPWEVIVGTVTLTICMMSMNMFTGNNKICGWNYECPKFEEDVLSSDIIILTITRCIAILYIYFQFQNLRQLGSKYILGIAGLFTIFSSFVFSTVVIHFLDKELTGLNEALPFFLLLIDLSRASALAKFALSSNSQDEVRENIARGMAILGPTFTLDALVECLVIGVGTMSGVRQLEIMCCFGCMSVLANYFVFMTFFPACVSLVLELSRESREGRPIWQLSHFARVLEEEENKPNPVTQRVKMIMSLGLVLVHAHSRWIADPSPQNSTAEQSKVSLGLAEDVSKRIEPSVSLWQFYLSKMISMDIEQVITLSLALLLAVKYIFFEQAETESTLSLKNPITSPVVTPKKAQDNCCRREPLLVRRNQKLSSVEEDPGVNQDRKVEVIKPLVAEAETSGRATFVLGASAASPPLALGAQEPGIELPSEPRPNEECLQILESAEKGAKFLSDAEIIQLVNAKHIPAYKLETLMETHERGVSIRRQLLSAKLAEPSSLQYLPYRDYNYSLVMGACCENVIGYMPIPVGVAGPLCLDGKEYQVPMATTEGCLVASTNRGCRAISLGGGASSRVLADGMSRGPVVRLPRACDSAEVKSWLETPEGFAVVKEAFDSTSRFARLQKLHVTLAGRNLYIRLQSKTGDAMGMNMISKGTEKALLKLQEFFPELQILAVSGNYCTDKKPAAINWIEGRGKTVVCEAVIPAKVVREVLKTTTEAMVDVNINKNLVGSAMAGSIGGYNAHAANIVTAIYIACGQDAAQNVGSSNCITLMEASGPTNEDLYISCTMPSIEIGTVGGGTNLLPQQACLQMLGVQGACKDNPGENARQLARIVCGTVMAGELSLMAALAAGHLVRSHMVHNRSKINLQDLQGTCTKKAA
pIC50: −log10 of the molar value. Structures can show the parent of a compound that is named as a salt.

{"columns": ["Compound", "pIC50"],
 "data": [
  ["CCC(C)c1nn(-c2ccnc(Nc3ccccc3)c2)c(-c2ccc(F)cc2)c1/C=C/[C@@H](O)C[C@@H](O)CC(=O)O (stereo partly shown) [Example 10a, calcium salt]", 8.52]
]}
